Parameter: Log2 fold-change of gene expression: APOE. Scope: all listed entries.
Test system: angiogenesis genes in dermal microvascular endothelial cells
Test: Real time RT-PCR of angiogenesis gene expression during endothelial tube formation
Format: cell-based
Settings: 1 μM SM, 24 hours
Description: For gene expression studies, three independent experiments were run for each SM tested. […] Fluorescence was measured in every cycle and a melting curve was run after the PCR by increasing temperature from 50 to 96° C. […] The genes that were monitored were selected based on their relevance to the angiogenesis process. […]
Form: value (number only, do not type unit).

# annotated cases, reported Log2 fold-change of gene expression: APOE shown
# Molecule, Result
data = [
    ("CC1CCN(CC[S-])CC1.O.O.[Cl][Pt+] [compound 292596]", 5.1),
    ("COC(=O)C1CC(=O)C(C(=O)OC)CC1=O (stereo not drawn) [Compound 122567]", 0.8),
    ("CCC(=O)OCN1C(=O)C=CC1=O [compound 19630]", 3.3),
    ("COc1ccc(CC2C(=O)NC(C)C(=O)N(C)C3Cc4ccc(cc4)Oc4cc(ccc4O)CC(C(=O)NC(C)C(=O)NC(C)C(=O)N2C)N(C)C3=O)cc1 (stereo not drawn) [compound 259969]", 0.8),
    ("COc1cc2cc(c1Cl)N(C)C(=O)CC(OC(=O)C(C)C)C1(C)OC1C(C)C1CC(O)(NC(=O)O1)C(OC)/C=C/C=C(\\C)C2 (stereo not drawn) [compound 292222]", "−2.2"),
]

# context switch: different molecule, same Log2 fold-change of gene expression: APOE
Record summary for O=C1C(=Cc2ccccc2)C(NC2CCCCC2)c2ccccc21 (stereo not drawn) [compound 150117] : reported Log2 fold-change of gene expression: APOE = −1.0

Hello, the source for this data is patent US9504729B2, in case you need it.
